- target-under-test: T1, recombinant C-terminally truncated RSV (A2 strain) F protein (RSV (A2 strain), UniProt P03420 26-524)
- T1 construct: extracellular domain; also called truncated F protein; extracellular domain of the F protein from RSV A2
- T1 sequence (P03420 26-109, chain 1 of 2): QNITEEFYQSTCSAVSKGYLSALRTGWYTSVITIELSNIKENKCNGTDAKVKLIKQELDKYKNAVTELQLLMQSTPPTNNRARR
- T1 sequence (P03420 137-524, chain 2 of 2): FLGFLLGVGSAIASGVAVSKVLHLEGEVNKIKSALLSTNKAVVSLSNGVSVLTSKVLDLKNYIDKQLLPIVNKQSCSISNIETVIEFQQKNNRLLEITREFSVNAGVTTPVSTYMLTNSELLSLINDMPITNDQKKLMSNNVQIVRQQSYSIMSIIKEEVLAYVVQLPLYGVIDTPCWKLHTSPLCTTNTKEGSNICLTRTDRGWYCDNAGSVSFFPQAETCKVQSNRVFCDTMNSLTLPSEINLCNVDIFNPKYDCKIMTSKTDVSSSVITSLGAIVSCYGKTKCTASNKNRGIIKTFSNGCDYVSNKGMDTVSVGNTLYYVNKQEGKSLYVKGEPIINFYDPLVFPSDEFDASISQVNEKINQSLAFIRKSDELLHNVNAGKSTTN
- test-method-notes: SPR (BIAcore), Fab over immobilised F
What kon was measured for each of the following?
Numbers only, in M⁻¹ s⁻¹.

Here is how some binders turned out for kon.
[
  {
    "binder": "AFSF Fab (Fab, name in Kabat numbering, V domains shown) VH: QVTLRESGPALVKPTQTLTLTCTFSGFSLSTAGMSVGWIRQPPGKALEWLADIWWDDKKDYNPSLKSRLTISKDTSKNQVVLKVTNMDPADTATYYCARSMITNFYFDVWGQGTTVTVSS VL: DIQMTQSPSTLSASVGDRVTITCSASSSVGYMHWYQQKPGKAPKLLIYDTSKLASGVPSRFSGSGSGTEFTLTISSLQPDDFATYYCFQGSFYPFTFGGGTKVEIK",
    "property-measured": "kon",
    "data-value": 113000
  },
  {
    "binder": "AFFY Fab (Fab, name in Kabat numbering, V domains shown) VH: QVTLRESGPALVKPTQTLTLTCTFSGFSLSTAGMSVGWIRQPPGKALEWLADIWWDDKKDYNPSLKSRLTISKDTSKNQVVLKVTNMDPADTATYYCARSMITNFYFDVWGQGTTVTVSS VL: DIQMTQSPSTLSASVGDRVTITCSASSSVGYMHWYQQKPGKAPKLLIYDTFKLASGVPSRFSGSGSGTEFTLTISSLQPDDFATYYCFQGSYYPFTFGGGTKVEIK",
    "property-measured": "kon",
    "data-value": 122000
  }
]

Please find the next binder below.
In: Respond only with kon recorded for G93F Fab (Fab, name in Kabat numbering, V domains shown) VH: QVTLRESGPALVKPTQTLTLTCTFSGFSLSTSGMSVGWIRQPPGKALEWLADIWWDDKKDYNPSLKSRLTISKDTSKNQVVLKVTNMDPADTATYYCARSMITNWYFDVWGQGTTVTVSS VL: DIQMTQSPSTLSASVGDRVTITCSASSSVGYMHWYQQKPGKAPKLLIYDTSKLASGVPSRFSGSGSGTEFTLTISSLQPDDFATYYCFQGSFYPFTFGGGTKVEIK
Out: 163000
